# Tested on: TK-10 renal
# EXPERIMENTAL_DETAILS: NCI-60 one-dose screen, 48 h (100 = growth as untreated, 0 = no growth, -100 = all killed)
# EXPERIMENTAL_CONTEXT: 10 µM unless noted
This is part of a sample that, as a whole, favours compounds with a hit. Of some 83,000 tested, about 20% had one in any assay.
QUANTITY_NAME: growth (%)
The answer is to be given in %; state only the numeric part.

# SUBSTANCE_SMILES, UNIT_SYMBOL, growth
rows = [
    ("C#CCOc1ccc2nc(CCl)c(Cl)c(Nc3cccc(C(F)(F)F)c3)c2c1", "%", 89.8),
    ("CCN(CCNc1ccc(C)c2sc3cc(Cl)ccc3c(=O)c12)CC(C)(C)O", "%", 75.7),
    ("CCCCNC(=O)c1ccc2c(c1)nc(-c1ccccc1)n2C1CCCCC1", "%", 130),
    ("C=CCn1cc(-c2nc3ccccc3s2)c2cc(-c3ccc4c5c(cccc35)C(=O)N(CCO)C4=O)ccc21", "%", 138),
    ("O=C(OCc1ccc2c(Cl)cc(Cl)c(O)c2n1)N1CCN(C(=O)c2cc3ccccc3[nH]2)CC1", "%", 42.6),
]

# input Record request: growth value, item `CSc1nc2ccc(C)cc2cc1/C=C1/C=C(c2ccccc2)NC1=O`
# output -6.59

# input Record request: growth value, item `CC(C)(C)c1ccc(S(=O)(=O)Oc2ccc(-c3sc4cc(OS(=O)(=O)c5ccc(C(C)(C)C)cc5)ccc4c3C(=O)c3ccc(OCCN4CCCCC4)cc3)cc2)cc1`
# output 90.4

# input Record request: growth value, item `CSc1ccc(N2C(=N)C(=S)N(c3ccc(C)cc3)C2=O)cc1`
# output 109

# input Record request: growth value, item `COc1ccc(-c2nc(SCC(=O)Nc3nc4ccc(C)cc4s3)[nH]c(=O)c2C#N)cc1OC`
# output 164
